B1: LINE1-full (parent)
chain: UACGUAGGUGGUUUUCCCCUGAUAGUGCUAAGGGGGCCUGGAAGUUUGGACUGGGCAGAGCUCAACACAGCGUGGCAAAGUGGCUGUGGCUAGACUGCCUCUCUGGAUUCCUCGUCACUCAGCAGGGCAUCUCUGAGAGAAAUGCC

Variants of: B1
Experiment: self-cleavage, relative activity (ratio to wild type); higher = more cleavage; in vitro, sequencing; the parent is a self-cleaving ribozyme
Measured self-cleavage, listed per entry for reference.
I only need the number, thanks.

Worked cases, answers included:
{"columns": ["RESIDUES", "REPORTED MEASUREMENT"],
 "data": [
  ["UACGUAGGUGGUUUUCCCCUGAUCGUGCUAAGGGGGCCUGGAAGUUUGGACUGGGCAGAGCUCAACACAGCGAGGCAAAGUGGCUGUGGCUAGACUGCCUCUCUGGAUUCCUCGUCACUCAGCAGGGCAUCUCUGAGAGAAAUGCC", 0.46],
  ["UACGUAGGUGGUUUUCCCCUGAUAGUGCUAAGGGGGCCUGGAAGUUUGGUCUGGGCAGAGCUUAACACAGCGUGGCAAAGUGGCUGUGGCUAGACUGCCUCUCUGGAUUCCUCGUCACUCAGCAGGGCAUCUCUGAGAGAAAUGCC", 0.2],
  ["UACGUAGGUGGUUUUCCCCUGAUAGUGCUAAGGGGGCCUGGAAGUUUGGAUUGGGCAGAGCUCAACACAGCGUGGCAAAGUGGCUGUGGCUAGACUGCCUCUCUGGAUUCCUCGUCACUCAGCAGGGCAUCUCUGAGAGAAAUGGC", 1.28],
  ["UACGUAGGUGGUUUUCCCCUGAUUGUGCUAAGGGGGCCUGGAGGUUUGGACUGGGCAGAGCUCAACACAGCGUGGCAAAGUGGCUGUGGCUAGACUGCCUCUCUGGAUUCCUCGUCACUCAGCAGGGCAUCUCUGAGAGAAAUGCC", 1.33],
  ["CACGUAGGUGGUUUUCCCCUGAUGGUGCUAAGGGGGCCUGGAAGUUUGGACUGGGCAGAGCUCAACACAGCGUGGCAAAGUGGCUGUGGCUAGACUGCCUCUCUGGAUUCCUCGUCACUCAGCAGGGCAUCUCUGAGAGAAAUGCC", 1.15]
]}

[ask] Data request, read-out self-cleavage, for "UACGUAGGUGGUUUUCCCCUGAUAGUGCUAAGGGGGCCUGGAAGUUUGGAUUGGGCAGAGCUCAACACAGCGUGGCAAAGUGGCCGUGGCUAGACUGCCUCUCUGGAUUCCUCGUCACUCAGCAGGGCAUCUCUGAGAGAAAUGCC"
[reply] 0.19

[ask] Data request, read-out self-cleavage, for "UACGUAGGUGGUUUUCCCCUGAUAGUGCUAAGGGGGCCCGGAAGUUUGGACUGGGCAGAGCUCAACACAGCGUGGCAAAGUGGCUGUGGCUAGACUGCCUCUCUGGGUUCCUCGUCACUCAGCAGGGCAUCUCUGAGAGAAAUGCC"
[reply] 1.36

[ask] Data request, read-out self-cleavage, for "UACGUAGGUGGUUUUCCCCUGAUAGUGCUAAGGGGGCCUGGAAGUUUGGACUCGGCAGAGCUCAACACAGCGUGGCAAAGUGGCUGUGGCUAGACUGCCUCUCUGGAUUCCUCGCCACUCAGCAGGGCAUCUCUGAGAGAAAUGCC"
[reply] 1.96

[ask] Data request, read-out self-cleavage, for "UACGUAGGUGGUUUUCCCCUGAUAGUGCUAAGGGGGCCUGGAAGUUUGGACUGGGCAGAGCUCAACACAGCGUGGCAAAGUGGCUGUGGCUAGACUGCCUCUUUGGAUUCCUCGUCACCCAGCAGGGCAUCUCUGAGAGAAAUGCC"
[reply] 1.7

[ask] Data request, read-out self-cleavage, for "CACGUAGGUGGCUUUCCCCUGAUAGUGCUAAGGGGGCCUGGAAGUUUGGACUGGGCAGAGCUCAACACAGCGUGGCAAAGUGGCUGUGGCUAGACUGCCUCUCUGGAUUCCUCGUCACUCAGCAGGGCAUCUCUGAGAGAAAUGCC"
[reply] 0.78

[ask] Data request, read-out self-cleavage, for "UACGUAGGUGGCUUUCCCCUGAUAGUGCUAAGGGGGCCUGGAAGUUUGGACUGGGCAGAGCUCAACACAGCGUGGCAAAAUGGCUGUGGCUAGACUGCCUCUCUGGAUUCCUCGUCACUCAGCAGGGCAUCUCUGAGAGAAAUGCC"
[reply] 0.84

src = the RNAGym collection of RNA variant scans (doi:10.7554/elife.90254)
